These entries and their values trace back to ChEMBL document CHEMBL3046530.

- TESTED_SYSTEM: Histamine H1 receptor (Cavia porcellus) (UniProt P31389)
- Sequence (P31389 whole entry): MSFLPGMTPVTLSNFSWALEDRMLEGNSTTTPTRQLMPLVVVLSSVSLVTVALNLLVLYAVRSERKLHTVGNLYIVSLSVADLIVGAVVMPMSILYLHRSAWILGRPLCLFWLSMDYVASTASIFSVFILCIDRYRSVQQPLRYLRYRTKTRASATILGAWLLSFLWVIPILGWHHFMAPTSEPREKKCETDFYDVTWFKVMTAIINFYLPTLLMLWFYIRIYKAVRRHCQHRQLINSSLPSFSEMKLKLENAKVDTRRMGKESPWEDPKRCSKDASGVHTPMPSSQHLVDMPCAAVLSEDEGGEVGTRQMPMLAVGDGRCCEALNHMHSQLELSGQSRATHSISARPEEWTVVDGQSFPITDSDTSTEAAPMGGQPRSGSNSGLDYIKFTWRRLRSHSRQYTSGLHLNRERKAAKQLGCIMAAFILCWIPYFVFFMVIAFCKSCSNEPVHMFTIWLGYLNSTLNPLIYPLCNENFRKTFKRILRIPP
- TEST_DESCRIPTION: Inhibition of H1 receptor in Cavia porcellus Hartley (guinea pig) ileum assessed as inhibition of histamine-induced spasms incubated at 10 '-5 M 2 min prior histamine-challenge
- Format: tissue-based
REPORTED_PROPERTY: inhibition
Quick note: unit goes after the number.

Per the records, this molecule ( CC(C)(CO)NCC(C)(C)N1C(=O)c2ccccc2C1=O ) has inhibition equal to 0%

Per the records, this molecule ( O=C1c2ccccc2C(=O)N1CC(O)CNC1CCCCC1 (racemic) ) has inhibition equal to 33.3%

Per the records, this molecule ( CC(C)(CO)NC=C1C(=O)NC(=O)NC1=O ) has inhibition equal to 40%

Per the records, this molecule ( CC(C)CNCC(C)(C)N1C(=O)c2ccccc2C1=O ) has inhibition equal to 16%

Per the records, this molecule ( CCOC(=O)N1CCN(C=C2C(=O)NC(=O)NC2=O)CC1 ) has inhibition equal to 9%

Per the records, this molecule ( CC(CO)(CO)NCc1nc2ccccc2[nH]1 ) has inhibition equal to 11.2%

###

- TESTED_SYSTEM: Histamine H1 receptor (Cavia porcellus)
- TEST_DESCRIPTION: Inhibition of H1 receptor in Cavia porcellus Hartley (guinea pig) ileum assessed as inhibition of histamine-induced spasms incubated at 10 '-5 M 2 min prior histamine-challenge
- Type: tissue-based
REPORTED_PROPERTY: inhibition
Quick note: unit goes after the number.

Per the records, this compound ( O=C1NC(=O)C(=CN2CCOCC2)C(=O)N1 ) has inhibition equal to 57.3%

Per the records, this compound ( CC(CO)(CO)Nc1nc2ccccc2[nH]1 ) has inhibition equal to 29.6%

Per the records, this compound ( CC(CO)(CO)NCCCN1C(=O)c2ccccc2C1=O ) has inhibition equal to 28.4%

Per the records, this compound ( O=C1NC(=O)C(=CNC2CCCCC2)C(=O)N1 ) has inhibition equal to 55.3%

Per the records, this compound ( OCCN(Cc1nc2ccccc2[nH]1)c1nc2ccccc2[nH]1 ) has inhibition equal to 10.5%

Per the records, this compound ( Cc1ccc(/C(=C\CN2CCCC2)c2cccc(/C=C/C(=O)O)n2)cc1 ) has inhibition equal to 60%

Per the records, this compound ( CC(C)(CO)N1C(=O)c2ccccc2C1=O ) has inhibition equal to 0%

###

Record form. Attribute: Emax. Fill in for each entry.
- TESTED_SYSTEM: UniProt P31389
- TEST_DESCRIPTION: Inhibition of H1 receptor in Cavia porcellus Hartley (guinea pig) ileum assessed as inhibition of histamine-induced spasms incubated 2 min prior histamine-challenge relative to acrivastine
- Type: tissue-based
# number only, unit % dropped from output

Per the records, this compound ( Cc1ccc(/C(=C\CN2CCCC2)c2cccc(/C=C/C(=O)O)n2)cc1 ) has Emax equal to 100

Per the records, this compound ( CC(CO)(CO)NCCCN1C(=O)c2ccccc2C1=O ) has Emax equal to 54

Per the records, this compound ( O=C1NC(=O)C(=CN2CCOCC2)C(=O)N1 ) has Emax equal to 100

Per the records, this compound ( O=C1NC(=O)C(=CNC2CCCCC2)C(=O)N1 ) has Emax equal to 100

Per the records, this compound ( O=C1c2ccccc2C(=O)N1CC(O)CNC1CCCCC1 (racemic) ) has Emax equal to 37.5

Per the records, this compound ( CC(CO)(CO)Nc1nc2ccccc2[nH]1 ) has Emax equal to 55

###

- TESTED_SYSTEM: Histamine H1 receptor (Cavia porcellus, UniProt P31389)
- TEST_DESCRIPTION: Inhibition of H1 receptor in Cavia porcellus Hartley (guinea pig) ileum assessed as inhibition of histamine-induced spasms incubated 2 min prior histamine-challenge
pIC50: −log10 of the molar value.
Assign class by pIC50: not lower than 5 means rule met; lower than 5 means rule not met.

For this molecule, is measured pIC50 5 or higher? Cc1ccc(/C(=C\CN2CCCC2)c2cccc(/C=C/C(=O)O)n2)cc1
rule met

For this molecule, is measured pIC50 5 or higher? O=C1NC(=O)C(=CN2CCOCC2)C(=O)N1
rule not met

For this molecule, is measured pIC50 5 or higher? O=C1NC(=O)C(=CNC2CCCCC2)C(=O)N1
rule met

For this molecule, is measured pIC50 5 or higher? CC(CO)(CO)NCCCN1C(=O)c2ccccc2C1=O
rule not met

For this molecule, is measured pIC50 5 or higher? CC(CO)(CO)Nc1nc2ccccc2[nH]1
rule not met

For this molecule, is measured pIC50 5 or higher? CC(C)(CO)NC=C1C(=O)NC(=O)NC1=O
rule met

###

- TESTED_SYSTEM: Histamine H1 receptor (Cavia porcellus) (UniProt P31389)
- TEST_DESCRIPTION: Inhibition of H1 receptor in Cavia porcellus Hartley (guinea pig) ileum assessed as inhibition of histamine-induced spasms incubated at 10 '-6 M 2 min prior histamine-challenge
- Format: tissue-based
Record form. Attribute: inhibition. Fill in for each entry.
# number only, unit % dropped from output

Per the records, this compound ( Cc1ccc(/C(=C\CN2CCCC2)c2cccc(/C=C/C(=O)O)n2)cc1 ) has inhibition equal to 16.6

Per the records, this compound ( O=C1NC(=O)C(=CN2CCOCC2)C(=O)N1 ) has inhibition equal to 12.8

Per the records, this compound ( CC(CO)(CO)NCCCN1C(=O)c2ccccc2C1=O ) has inhibition equal to 5.45

Per the records, this compound ( O=C1NC(=O)C(=CNC2CCCCC2)C(=O)N1 ) has inhibition equal to 20

Per the records, this compound ( CC(CO)(CO)Nc1nc2ccccc2[nH]1 ) has inhibition equal to 7.16

Per the records, this compound ( CC(C)(CO)N1C(=O)c2ccccc2C1=O ) has inhibition equal to 0

Per the records, this compound ( CC(C)(CO)NCC(C)(C)N1C(=O)c2ccccc2C1=O ) has inhibition equal to 0

Per the records, this compound ( CC(C)CNCC(C)(C)N1C(=O)c2ccccc2C1=O ) has inhibition equal to 14

Per the records, this compound ( OCCN(Cc1nc2ccccc2[nH]1)c1nc2ccccc2[nH]1 ) has inhibition equal to 0

Per the records, this compound ( CC(CO)(CO)NCc1nc2ccccc2[nH]1 ) has inhibition equal to 0

Per the records, this compound ( CC(C)(CO)NC=C1C(=O)NC(=O)NC1=O ) has inhibition equal to 16.7

Per the records, this compound ( O=C1c2ccccc2C(=O)N1CC(O)CNC1CCCCC1 (racemic) ) has inhibition equal to 12.9

Per the records, this compound ( CCOC(=O)N1CCN(C=C2C(=O)NC(=O)NC2=O)CC1 ) has inhibition equal to 8

###

- TESTED_SYSTEM: Histamine H1 receptor (Cavia porcellus) (UniProt P31389)
- TEST_DESCRIPTION: Inhibition of H1 receptor in Cavia porcellus Hartley (guinea pig) ileum assessed as inhibition of histamine-induced spasms incubated at 10 '-3 M 2 min prior histamine-challenge
- Format: tissue-based
Assign class by inhibition: not lower than 70% means condition met; lower than 70% means condition not met.

For this molecule, is measured inhibition 70% or higher? O=C1c2ccccc2C(=O)N1CC(O)CNC1CCCCC1 (racemic)
condition not met

For this molecule, is measured inhibition 70% or higher? CC(C)CNCC(C)(C)N1C(=O)c2ccccc2C1=O
condition not met

For this molecule, is measured inhibition 70% or higher? CC(C)(CO)NCC(C)(C)N1C(=O)c2ccccc2C1=O
condition not met

For this molecule, is measured inhibition 70% or higher? CC(C)(CO)NC=C1C(=O)NC(=O)NC1=O
condition met

For this molecule, is measured inhibition 70% or higher? OCCN(Cc1nc2ccccc2[nH]1)c1nc2ccccc2[nH]1
condition not met

For this molecule, is measured inhibition 70% or higher? O=C1NC(=O)C(=CNC2CCCCC2)C(=O)N1
condition met

For this molecule, is measured inhibition 70% or higher? CC(CO)(CO)NCc1nc2ccccc2[nH]1
condition not met

###

- TESTED_SYSTEM: Histamine H1 receptor (Cavia porcellus)
- TEST_DESCRIPTION: Inhibition of H1 receptor in Cavia porcellus Hartley (guinea pig) ileum assessed as inhibition of histamine-induced spasms incubated at 10 '-2 M 2 min prior histamine-challenge
- Format: tissue-based
REPORTED_PROPERTY: inhibition
Quick note: unit goes after the number.

The compound O=C1NC(=O)C(=CN2CCOCC2)C(=O)N1 on Histamine H1 receptor (Cavia porcellus): inhibition was 100%

The compound CC(C)(CO)NCC(C)(C)N1C(=O)c2ccccc2C1=O on Histamine H1 receptor (Cavia porcellus): inhibition was 100%

The compound CC(C)(CO)N1C(=O)c2ccccc2C1=O on Histamine H1 receptor (Cavia porcellus): inhibition was 0%

The compound Cc1ccc(/C(=C\CN2CCCC2)c2cccc(/C=C/C(=O)O)n2)cc1 on Histamine H1 receptor (Cavia porcellus): inhibition was 100%

The compound CC(C)CNCC(C)(C)N1C(=O)c2ccccc2C1=O on Histamine H1 receptor (Cavia porcellus): inhibition was 22%

The compound CC(CO)(CO)NCCCN1C(=O)c2ccccc2C1=O on Histamine H1 receptor (Cavia porcellus): inhibition was 100%

The compound O=C1c2ccccc2C(=O)N1CC(O)CNC1CCCCC1 (racemic) on Histamine H1 receptor (Cavia porcellus): inhibition was 78.3%

The compound OCCN(Cc1nc2ccccc2[nH]1)c1nc2ccccc2[nH]1 on Histamine H1 receptor (Cavia porcellus): inhibition was 65.5%

The compound CC(C)(CO)NC=C1C(=O)NC(=O)NC1=O on Histamine H1 receptor (Cavia porcellus): inhibition was 100%

The compound CC(CO)(CO)NCc1nc2ccccc2[nH]1 on Histamine H1 receptor (Cavia porcellus): inhibition was 85.7%

The compound O=C1NC(=O)C(=CNC2CCCCC2)C(=O)N1 on Histamine H1 receptor (Cavia porcellus): inhibition was 100%

The compound CC(CO)(CO)Nc1nc2ccccc2[nH]1 on Histamine H1 receptor (Cavia porcellus): inhibition was 100%

The compound CCOC(=O)N1CCN(C=C2C(=O)NC(=O)NC2=O)CC1 on Histamine H1 receptor (Cavia porcellus): inhibition was 25%
